Biological target: T1, MAP1LC3A ATG8 (human)
T1 construct: MAP1LC3A, ATG8 domain; source: E. coli BL21-Gold(DE3), purified (GSH or Ni2+ beads), tag removed by protease
Assay: fluorescence polarisation; direct binding (saturation curve): 1:1 dilution series of the protein domain with 5 nM FITC-labelled peptide; room temperature; 50 mM sodium phosphate buffer pH 7.4; fitted to the quadratic equation
Conditions: both partners purified
No end group written: not given here.
value-kind: pKd
# reply with the number alone; pKd is -log10 of concentration in mol/L

pKd measured on DDDWTHLSSK (also: FITC label, position not given here) [FITC-SQSTM1] = 5.87
